tested on: HSC2 (primary human Schwann cells); assay: % inhibition of CellTiter-Glo viability at highest tested concentration (72 h), relative to DMSO and benzethonium chloride controls; higher = more inhibition
parameter: % inhibition (%)

compound	measured_number
CS(=O)(=O)c1ccc(C(=O)Nc2ccc(Cl)c(-c3ccccn3)c2)c(Cl)c1 [Vismodegib] (max concentration tested 10000 nM)	-4.33
CCCCCOC(=O)Nc1nc(=O)n([C@@H]2O[C@H](C)[C@@H](O)[C@H]2O)cc1F [Capecitabine] (max concentration tested 10000 nM)	-3.4
Cc1ccc(Nc2nccc(N(C)c3ccc4c(C)n(C)nc4c3)n2)cc1S(N)(=O)=O [Pazopanib] (max concentration tested 10000 nM)	15.2
COC1=CC(c2cc3ccccc3[nH]2)=N/C1=C\c1[nH]c(C)cc1C [Obatoclax] (max concentration tested 10000 nM)	81.8
Cc1nc(Nc2ncc(C(=O)Nc3c(C)cccc3Cl)s2)cc(N2CCN(CCO)CC2)n1 [Dasatinib] (max concentration tested 1000 nM)	49.2
O=C(CCCCCCC(=O)Nc1ccc([C@H]2O[C@@H](CSc3nc(-c4ccccc4)c(-c4ccccc4)o3)C[C@@H](c3ccc(CO)cc3)O2)cc1)NO [Tubacin] (max concentration tested 10000 nM)	56.6
C=CC[C@@H]1/C=C(\C)C[C@H](C)C[C@H](OC)[C@H]2O[C@@](O)(C(=O)C(=O)N3CCCC[C@H]3C(=O)O[C@H](/C(C)=C/[C@@H]3CC[C@@H](O)[C@H](OC)C3)[C@H](C)[C@@H](O)CC1=O)[C@H](C)C[C@@H]2OC [Tacrolimus] (max concentration tested 10000 nM)	5.26
O=C(O)C1(C(=O)O)CCC1.[NH2-].[NH2-].[Pt+2] [Carboplatin aq] (max concentration tested 100000 nM)	93.2
CN(Cc1cnc2nc(N)nc(N)c2n1)c1ccc(C(=O)N[C@@H](CCC(=O)O)C(=O)O)cc1 [Methotrexate] (max concentration tested 5000 nM)	13.5
OC[C@H]1O[C@@H](n2cnc3c2N=CNC[C@H]3O)C[C@@H]1O [Pentostatin] (max concentration tested 10000 nM)	0.65
CCC/C=C/C=C/C(=O)O[C@H]1/C(=C/C(=O)OC)C[C@H]2C[C@H]([C@@H](C)O)OC(=O)C[C@H](O)C[C@@H]3C[C@H](OC(C)=O)C(C)(C)[C@](O)(C[C@@H]4C/C(=C/C(=O)OC)C[C@H](/C=C/C(C)(C)[C@]1(O)O2)O4)O3 [Bryostatin 1] (max concentration tested 100 nM)	-14.2
Cn1cc(CNCC2CCN(c3ncc(C(=O)NO)cn3)CC2)c2ccccc21 [Quisinostat] (max concentration tested 1000 nM)	95.7
O=c1[nH]c(=O)n([C@H]2C[C@H](O)[C@@H](CO)O2)cc1F [Floxuridine] (max concentration tested 10000 nM)	53.8
NC(=O)Nc1cc(-c2cccc(F)c2)sc1C(=O)N[C@H]1CCCNC1 [AZD7762] (max concentration tested 1000 nM)	70.2
O=C(CCBr)N1CCN(C(=O)CCBr)CC1 [Pipobroman] (max concentration tested 10000 nM)	0.945
COc1ncc(-c2ccc3nccc(-c4ccnnc4)c3c2)cc1NS(=O)(=O)c1ccc(F)cc1F (max concentration tested 1000 nM)	84.1
